# System: mESC Bmi1-luciferase reporter, firefly/renilla ratio, 24 h
# test summary: compounds raising Bmi1 reporter signal – mouse embryonic stem cells, luciferase, cherry-pick, esBAF inhibitor project, dose response (AID 651717);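 also: luciferase knocked into Bmi1 locus with EF-1a renilla as cell number control; rising ratio signals esBAF inhibition which derepresses Bmi1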
Please go through the items and note down their AC40.

{"columns": ["smiles text", "result"],
 "data": [
  ["COc1cc2ccccc2cc1C(=O)Nc1ccncc1", "5.2 µM"]
]}

// for each compound below, give its AC40
1. COc1ccc(Cc2nnc(NC(=O)c3ccc(OC)cc3OC)s2)cc1
2. CCN(CC)C(=O)OCc1c(-c2ccccc2)ncc2ccccc12
3. CS(=O)(=O)N1CCN(c2nc3ccccc3s2)CC1
4. CC(=O)Oc1ccc(-c2cc3ccccc3oc2=O)cc1

Marked response:
12.5 µM
2.25 µM
1.24 µM
3.22 µM

----------
# Test system: mESC Bmi1-luciferase reporter, firefly/renilla ratio, 24 h
# test summary: compounds raising Bmi1 reporter signal – mouse embryonic stem cells, luciferase, cherry-pick, esBAF inhibitor project, dose response (AID 651717);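 also: luciferase knocked into Bmi1 locus with EF-1a renilla as cell number control; rising ratio signals esBAF inhibition which derepresses Bmi1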
Consider the following compounds; for each one, report its AC40.

{"columns": ["compound", "result"],
 "data": [
  ["Cc1ccc(NC(=O)NC2CCCCCCC2)cc1C", "4.22 µM"],
  ["CC(=O)c1ccc(NC(=O)CNCc2cccs2)cc1", "12.3 µM"],
  ["Cc1ccccc1-c1nnc(-c2cccc3ccccc23)o1", "0.85 µM"],
  ["CN(Cc1cccnc1)C(=O)c1cc(COc2ccc3c(c2)CCCC3)on1", "0.9 µM"],
  ["O=C(Nc1cccc(-c2nc3ccccc3s2)c1)c1cc(-n2cnnc2)ccc1Cl", "7.62 µM"]
]}

Provide each entry's AC40 from the list below.
1. COc1cccc(NC(=O)C(=O)NCCC2CCCCN2S(=O)(=O)c2ccccc2)c1 (stereo not drawn)
2. CCOC(=O)N1CCN(C(=O)CSCC(=O)Nc2nc(-c3ccc4c(c3)OCO4)cs2)CC1
3. COc1ccc(NC(=O)c2ccc3ccccc3c2OC)cc1

Marked response:
["2.93 µM", "12.1 µM", "2.56 µM"]
